assayed_system: Olfr742 (Mus musculus)
Sequence (A2RTP5 entry or part of it): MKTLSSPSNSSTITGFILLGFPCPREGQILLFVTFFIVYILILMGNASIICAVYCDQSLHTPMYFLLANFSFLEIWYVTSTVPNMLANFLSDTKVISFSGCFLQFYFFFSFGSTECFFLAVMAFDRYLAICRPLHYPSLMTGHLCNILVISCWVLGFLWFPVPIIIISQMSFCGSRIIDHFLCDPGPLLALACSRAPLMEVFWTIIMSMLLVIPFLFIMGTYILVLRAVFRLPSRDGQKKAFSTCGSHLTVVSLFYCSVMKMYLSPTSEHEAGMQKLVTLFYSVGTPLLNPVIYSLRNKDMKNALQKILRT
method_summary: Indole antagonist dose-response, cAMP HTRF in HEK293T, vs indole EC80
Format: cell-based
measurement_context: Table 22, first listing (r7-r45); vs indole EC80; read-out: Olfr742 IC50
Procedure: Using a cell-based assay, mouse receptor Olfr738, Olfr739, Olfr740, Olfr741, 0fr742, Olfr743, Olfr744, Olfr746, Olfr748 and Olfr749 were tested in an HEK293T cell line wherein the endogenous RTP1 gene has been activated and the odorant receptor chaperone was expressed (described in WO2016201153A1). […] Odorant-induced activity was detected by measuring the cAMP increase in the cytosol using an HTRF based kit (CisBio, cAMP dynamic 2 kit, cat. 62AM4PEJ).
IC50 listing for selected compounds.
Give just the number in µM; leave the unit off.

I have this compound here, Cc1ccc(CC(C)C=O)cc1 (stereo not drawn) [2-methyl-3-(4-methylphenyl) propanal] , and I need its recorded IC50.
88.2

Same read-out for CC1C(C)(C)C2=C(C(=O)CCC2)C1(C)C (stereo not drawn) ?
249

Same read-out for `c1nc2c(o1)CCCCCCCCCC2` ?
26.8

Same read-out for `C=C1CC[C@H]2O[C@]2(C)CC[C@@H]2[C@@H]1CC2(C)C` ?
99.1

Same read-out for CC(CC=O)c1ccccc1 (stereo not drawn) [3-phenylbutanal] ?
44.8

More entries:
I have this compound here, C/C=C/C(=O)C1C(C)=CCCC1(C)C (racemic) , and I need its recorded IC50.
95.4

====

assayed_system: UniProtKB L7N1X7
method_summary: Indole antagonist dose-response, cAMP HTRF in HEK293T, vs indole EC80
Type: cell-based
measurement_context: Table 22, first listing; vs indole EC80
Tag: criterion met if measured Olfr738 % Inhibition is not below 50%, criterion not met if it is.

See these solved cases before continuing.
Textbook exercise: given the entry CC1C(C)(C)C2=C(C(=O)CCC2)C1(C)C (stereo not shown) , state whether its Olfr738 % Inhibition is greater than or equal to 50%.
criterion met

Same read-out for C/C=C/C(=O)C1C(C)=CCCC1(C)C (racemic) ?
criterion not met

Same read-out for CCCCCOC(=O)Cc1ccccc1 [Amyl Phenylacetate] ?
criterion not met

Same read-out for `c1nc2c(o1)CCCCCCCCCC2` ?
criterion met

Same read-out for `C=C1CC[C@H]2O[C@]2(C)CC[C@@H]2[C@@H]1CC2(C)C` ?
criterion met

More entries:
Textbook exercise: given the entry `CC(C)(C)C1CCC(=O)CC1` , state whether its Olfr738 % Inhibition is greater than or equal to 50%.
criterion met

Same read-out for CC1(C)CCC[C@]2(C)CC(=O)CC[C@@H]12 (racemic) ?
criterion met

====

System: OR11A1, or the OR2M3 olfactory receptor
method_summary: Geonol olfactory receptor antagonist cell-based screening, inhibitory dose-response vs geonol EC80
Set-up: species or system human
measurement_context: geonol at EC80
Tag: label 1 if measured % Inhibition is not below 50%, label 0 if it is.

Textbook exercise: given the entry `O=C1CCC=CCCCCCCCCCC1` , state whether its % Inhibition is greater than or equal to 50%.
label 0

====

Emax listing for selected compounds.
assayed_system: Olfr742 (Mus musculus)
method_summary: Indole antagonist dose-response, cAMP HTRF in HEK293T, vs indole EC80
Assay type: cell-based
measurement_context: HEK-293T, Table 22, second listing of the same compounds; vs indole EC80; read-out: Olfr742 % Inhibition
Method: Using a cell-based assay, mouse receptor Olfr738, Olfr739, Olfr740, Olfr741, 0fr742, Olfr743, Olfr744, Olfr746, Olfr748 and Olfr749 were tested in an HEK293T cell line wherein the endogenous RTP1 gene has been activated and the odorant receptor chaperone was expressed (described in WO2016201153A1). […] Odorant-induced activity was detected by measuring the cAMP increase in the cytosol using an HTRF based kit (CisBio, cAMP dynamic 2 kit, cat. 62AM4PEJ).
Give just the number in %; leave the unit off.

Below are worked cases with known answers.
So what Emax did C/C=C/C(=O)C1C(C)=CCCC1(C)C (racemic) get with Olfr742 (Mus musculus)?
47.9

Same read-out for `C=C1CC[C@H]2O[C@]2(C)CC[C@@H]2[C@@H]1CC2(C)C` ?
91.7

Same read-out for CC1(C)CCCC2(C)CC(=O)CCC12 (racemic) ?
97

More entries:
So what Emax did `c1nc2c(o1)CCCCCCCCCC2` get with Olfr742 (Mus musculus)?
57.9

====

assayed_system: Olfr738 (Mus musculus, UniProt L7N1X7)
Sequence (L7N1X7 entry or part of it): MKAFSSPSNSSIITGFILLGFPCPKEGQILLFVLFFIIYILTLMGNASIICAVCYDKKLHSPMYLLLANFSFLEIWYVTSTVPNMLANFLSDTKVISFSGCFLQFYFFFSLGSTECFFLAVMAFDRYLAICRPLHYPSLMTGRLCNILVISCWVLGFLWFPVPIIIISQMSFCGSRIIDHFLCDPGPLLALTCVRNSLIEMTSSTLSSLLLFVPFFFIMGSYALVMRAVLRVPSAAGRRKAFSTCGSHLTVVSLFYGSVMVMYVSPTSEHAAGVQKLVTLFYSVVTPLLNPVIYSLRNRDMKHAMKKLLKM
method_summary: Indole antagonist dose-response, cAMP HTRF in HEK293T, vs indole EC80
Format: cell-based
measurement_context: Table 22, first listing; vs indole EC80; read-out: Olfr738 IC50
quantity_kind: IC50 (µM)
Give just the number in µM; leave the unit off.

I have this substance here, 6(8)-ISOPROPYLQUINOLINE [isopropyl quinoline] , and I need its recorded IC50.
120

====

System: geonol earthy/moss odor perception
method_summary: Human sensory performance of test compounds with and without geonol
Assay type: in vivo
measurement_context: Medium Dilution Test Compound + Geonol (0.1%)
quantity_kind: % Earthy/Moss Odor Remaining (%)
Give just the number in %; leave the unit off.

Below are worked cases with known answers.
So what % Earthy/Moss Odor Remaining did `C[C@@H]1CC[C@]2(O)C(C)(C)[C@H]3CC[C@@]2(C)[C@@H]1C3` get with geonol earthy/moss odor perception?
129.80

Same read-out for CC(=O)OCCc1ccccc1 [phenyl ethyl acetate] ?
65.80

More entries:
So what % Earthy/Moss Odor Remaining did `CCC(=CC[C@@H]1CC=C(C)C1(C)C)CO` get with geonol earthy/moss odor perception?
64.30

Same read-out for C[C@@H](CC=O)CCCC(C)(C)O [(3~{R})-7-hydroxy-3,7-dimethyloctanal] ?
57.20

Same read-out for `CC1=C[C@@H](C)[C@@H](C=O)CC1` ?
71.50

====

assayed_system: OR51E1 olfactory receptor (Homo sapiens)
Construct: expressed in transfected cells
Sequence (Q8TCB6 1-318): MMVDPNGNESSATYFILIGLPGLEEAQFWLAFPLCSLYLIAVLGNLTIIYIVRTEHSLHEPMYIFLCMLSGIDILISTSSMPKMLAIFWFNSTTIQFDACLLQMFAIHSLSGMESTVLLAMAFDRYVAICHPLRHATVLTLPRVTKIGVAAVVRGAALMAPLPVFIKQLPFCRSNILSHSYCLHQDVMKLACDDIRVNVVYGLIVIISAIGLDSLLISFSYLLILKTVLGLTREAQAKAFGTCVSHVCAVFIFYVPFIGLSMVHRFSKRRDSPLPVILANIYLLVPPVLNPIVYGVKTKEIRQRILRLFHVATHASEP
method_summary: Butyric acid olfactory receptor antagonist cell-based dose-response vs butyric acid EC80
measurement_context: Table 20, spiro analogues
pIC50: −log10 of the molar value.
Tag: Met if measured pIC50 is not below 4, Not met if it is.

See these solved cases before continuing.
Textbook exercise: given the entry COC1C(C)(C)CCC12CC=CC2 (stereo not drawn) , state whether its pIC50 is greater than or equal to 4.
Not met

Same read-out for C=CCC1(C(C)C=C)CCCC(C)(C)C1=O (stereo not drawn) ?
Met

Same read-out for `C=C(C)CC1(CC(=C)C)CCCC(C)(C)C1=O` ?
Met

Same read-out for COC1C(C)(C)CCC12CCCC2 (stereo not drawn) [4-methoxy-3,3-dimethylspiro[4.4]nonane] ?
Not met

More entries:
Textbook exercise: given the entry C=C(C)CC1(CC(=C)C)CCC(C)(C)C1O (stereo not drawn) , state whether its pIC50 is greater than or equal to 4.
Met

====

assayed_system: Olfr740 (Mus musculus, UniProt E9PV79)
Sequence (E9PV79 entry or part of it): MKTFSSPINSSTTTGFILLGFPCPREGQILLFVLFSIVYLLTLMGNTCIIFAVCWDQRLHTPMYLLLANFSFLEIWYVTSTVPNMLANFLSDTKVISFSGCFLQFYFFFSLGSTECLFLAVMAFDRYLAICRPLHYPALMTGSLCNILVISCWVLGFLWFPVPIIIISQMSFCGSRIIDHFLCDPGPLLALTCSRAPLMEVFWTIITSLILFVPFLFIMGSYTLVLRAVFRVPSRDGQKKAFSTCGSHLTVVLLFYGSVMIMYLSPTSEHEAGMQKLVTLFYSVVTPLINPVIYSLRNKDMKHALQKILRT
method_summary: Indole antagonist dose-response, cAMP HTRF in HEK293T, vs indole EC80
Type: cell-based
quantity_kind: pIC50
Value format note: pIC50 is -log10 of concentration (mol/L); just state the number.

So what pIC50 did CCCCCOC(=O)Cc1ccccc1 [Amyl Phenylacetate] get with Olfr740 (Mus musculus, UniProt E9PV79)?
4.39

====

System: geonol malodor (earthy/moss odor) perception
method_summary: Sensory evaluation of geonol earthy/moss odor in iso-intense binary mixtures (glass jars)
Type: in vivo, human
measurement_context: iso-intense binary mixture
Quick rule for you: % Remaining in human sensory tests under 50% gets true, anything else gets false.

Decide: % Remaining in human sensory tests of `Cc1ccc(C(C)C)c(O)c1` strictly below 50%?
false

Same read-out for `CCCCCCc1ccc(C)nc1` ?
true

Same read-out for `CCC=CCCC=CC=O` ?
false

Same read-out for CC(=O)OC(c1ccccc1)C(Cl)(Cl)Cl (centres unmarked) [(2,2,2-trichloro-1-phenylethyl) acetate] ?
false

Same read-out for `O=C1CCC=CCCCCCCCCCC1` ?
true

====

assayed_system: Olfr740 (Mus musculus, UniProt E9PV79)
method_summary: Indole antagonist dose-response, cAMP HTRF in HEK293T, vs indole EC80
Assay type: cell-based
measurement_context: HEK-293T, Table 22, first listing; vs indole EC80; read-out: Olfr740 % Inhibition
quantity_kind: Emax (%)
Give just the number in %; leave the unit off.

Below are worked cases with known answers.
I have this compound here, `C=CCCC(=O)C1=CCCC(C)(C)C1` , and I need its recorded Emax.
91.2

Same read-out for `CC(C)(C)C1CCC(=O)CC1` ?
213

Same read-out for C/C=C/C(=O)C1C(C)=CCCC1(C)C (racemic) ?
115

Same read-out for CC1(C)CCC[C@]2(C)CC(=O)CC[C@@H]12 (racemic) ?
127

Same read-out for CC1C(C)(C)C2=C(C(=O)CCC2)C1(C)C (stereo not drawn) ?
217

More entries:
I have this compound here, `C=C1CC[C@H]2O[C@]2(C)CC[C@@H]2[C@@H]1CC2(C)C` , and I need its recorded Emax.
203
